// data source = patent JP2005330292A

Biological target: T1, ヒト組織因子(TF)(ヒト膀胱癌細胞J82上に発現) (human, UniProt P13726 33-295)
T1 construct: whole, on cells; Target of the cell ELISA; also called ヒトTF; 抗原
Experiment: cell ELISA on fixed J82 cells

BINDER | binding result
H鎖キメラ/L鎖ヒト型化バージョンb2抗体 (antibody, V domains shown, Human IgG4 kappa (vector N5KG4P); also called ch-b2) VH: EVQLQQSGTNLVRPGALVKLSCKGSGFNIKDYYMHWVKQRPEQGLEWIGGNDPANGHSMYDPKFQGKASITADTSSNTAYLQLSSLTSEDTAVYFCARDSGYAMDYWGQGTSVTVSS VL: DIQMTQSPSSLSASVGDRVTITCKASQDIKSFLSWYQQKPEKAPKSLIYYATSLADGVPSRFSGSGSGTDYTLTISSLQPEDFATYYCLQHGESPYTFGGGTKVEIK | binds
H鎖ヒト型化バージョンd3/L鎖ヒト型化バージョンb抗体 (antibody, V domains shown, Human IgG4 kappa (vector N5KG4P); also called d3-b) VH: QVQLLESGAVLARPGTSVKISCKASGFNIKDYYMHWVRQAPGQGLEWIGGNDPANGHSMYDPKFQGRVTITADESTSTAYMELSSLRSEDSAVYFCARDSGYAMDYWGQGTLVTVSS VL: DIQMTQSPSSLSASVGDRVTITCKASQDIKSFLSWYQQKPGKAPKLLIYYATSLADGVPSRFSGSGSGTDYTLTISSLQPEDFATYYCLQHGESPYTFGGGTKVEIK | binds
H鎖ヒト型化バージョンa/L鎖ヒト型化バージョンa抗体 (antibody, V domains shown, Human IgG4 kappa (vector N5KG4P); also called a-a) VH: QVQLLESGAVLARPGTSVKISCKASGFNIKDYYMHWVKQRPGQGLEWIGGNDPANGHSMYDPKFQGRAKLTAATSASIAYLEFSSLTNEDSAVYYCARDSGYAMDYWGQGTLVTVSS VL: DIQMTQSPSSLSASVGDRVTITCKASQDIKSFLSWYQQKPGKAPKLLIYYATSLADGVPSRFSGSGSGTDFTLTISSLQPEDFATYYCLQHGESPYTFGGGTKVEIK | binds
